Would you kindly list pEC50 for each of these compounds?
target: μ-opioid receptor (Homo sapiens (Human)); test: μ-opioid receptor [35S]GTPγS functional assay, HEK-293 cells; format: biochemical
Please note pEC50 is a logarithmic value: minus log10 of concentration in mol/L. Answer with that number alone.

Recorded pEC50 for COc1ccc2c(c1)[C@]13CCN(CC4CC4)[C@H](C2)[C@@H]1C1CC1C(O)C3 (stereo partly shown) , please? 6.38

Next compound: C=CCOC1C[C@]23CCN(CC4CC4)[C@H](Cc4ccc(OC)cc42)C3C2CC12 (stereo partly shown) 7.12

Next compound: C=C1C[C@@]23CCN(CC4CC4)[C@H](Cc4ccc(OC)cc42)C3C2CC12 (stereo partly shown) 7.37

Next compound: COc1ccc2c(c1)[C@]13CCN(CC4CC4)[C@H](C2)[C@@H]1C1CC1C(=O)C3 (stereo partly shown) 7.27
